# System: Myc
# protocol: Myc inhibition assay: Myc expression per cell by anti-Myc immunofluorescence, high-content imaging
# Type: cell-based, human (patient-derived medulloblastoma xenograft cells)
# applied conditions: Table 1; medulloblastoma PDX cells, 4 h; read-out: IC50 (Myc inhibition)
observation type: IC50

Cc1cccc(Nc2nccc(-c3ccc4[nH]cnc4c3)n2)c1 [Compound 40] ... 200 to 1000 nM
FC(F)(F)c1cccc(Nc2nccc(-c3ccc4cc[nH]c4c3)n2)c1 [Compound 172] ... 1000 to 10000 nM
Fc1cccc(Nc2nccc(-c3cnc4nc[nH]c4c3)n2)c1 [Compound 151] ... < 200 nM
FC(F)(F)c1cccc(Nc2nccc(-c3ccc4scnc4c3)n2)c1 [Compound 76] ... 1000 to 10000 nM
c1cc(-c2ccc3[nH]cnc3c2)nc(Nc2ccc3sccc3c2)n1 [Compound 269] ... 200 to 1000 nM
Nc1ncc(-c2ccnc(Nc3cccc(C(F)(F)F)c3)n2)s1 [Compound 119] ... < 200 nM
FC(F)(F)c1cccc(Nc2cc(-c3ccc4[nH]cnc4c3)ccn2)c1 [Compound 52] ... 1000 to 10000 nM
Brc1cccc(Nc2nccc(-c3ccc4[nH]cnc4c3)n2)c1 [Compound 31] ... < 200 nM
CC(C)(C)c1ccc(Nc2nccc(-c3ccc4[nH]cnc4c3)n2)cc1 [Compound 72] ... 1000 to 10000 nM
FC(F)(F)c1cc(Nc2nccc(-c3ccc4[nH]cnc4c3)n2)ccc1Cl [Compound 89] ... 1000 to 10000 nM
NCCCOc1cccc(Nc2nccc(-c3ccc4[nH]cnc4c3)n2)c1 [Compound 91] ... 200 to 1000 nM
CC(C)(C)c1cccc(Nc2nccc(-c3ccc4[nH]cnc4c3)n2)c1 [Compound 87] ... 200 to 1000 nM
c1cc(-c2ccc3[nH]cnc3c2)nc(NC2CCOCC2)n1 [Compound 101] ... 1000 to 10000 nM
COc1cccc(-c2ccnc(Nc3ccccc3OC)n2)c1 [Compound 248] ... 10000 to 100000 nM
O=C(c1cccc(Nc2nccc(-c3ccc4[nH]cnc4c3)n2)c1)N1CCOCC1 [Compound 11] ... 200 to 1000 nM
Fc1ccc(Nc2nccc(-c3ccc4[nH]cnc4c3)n2)cc1 [Compound 81] ... 200 to 1000 nM
CN(c1cccc(C(F)(F)F)c1)c1nccc(-c2ccnc(O)c2)n1 [Compound 220] ... 10000 to 100000 nM
Oc1ccc(-c2ccnc(Nc3cc(F)ccn3)n2)nc1 [Compound 170] ... 1000 to 10000 nM
CN(c1ccccc1)c1nccc(-c2cncc(O)c2)n1 [Compound 218] ... 10000 to 100000 nM

----------
# System: Myc
# protocol: Myc inhibition assay: Myc expression per cell by anti-Myc immunofluorescence, high-content imaging
# Type: cell-based, human (patient-derived medulloblastoma xenograft cells)
# applied conditions: Table 1; medulloblastoma PDX cells, 4 h; read-out: IC50 (Myc inhibition)
observation type: IC50

COc1cc(-c2ccnc(Nc3ccccc3F)n2)ccn1 ... 10 to 100 µM
Oc1cc(-c2ccnc(Nc3cccc(C(F)(F)F)c3)n2)ccn1 ... 0.2 to 1 µM
Oc1ccnc(-c2ccnc(Nc3cccc(F)c3)n2)c1 ... 1 to 10 µM
COc1cccc(-c2ccnc(Nc3ccccc3)n2)c1 ... 10 to 100 µM
FC(F)(F)c1cccc(Nc2nccc(-c3cnc4nc[nH]c4c3)n2)c1 ... < 0.2 µM

----------
# System: Myc
# protocol: Myc inhibition assay: Myc expression per cell by anti-Myc immunofluorescence, high-content imaging
# Format: cell-based, human (patient-derived medulloblastoma xenograft cells)
# applied conditions: Table 1; medulloblastoma PDX cells, 4 h; read-out: IC50 (Myc inhibition)
pIC50: −log10 of the molar value.
observation type: pIC50

COc1ncc(-c2ccnc(Nc3cccc(F)c3)n2)s1 ... 5.00 to 6.00
COc1cc(-c2ccnc(Nc3cccc(OCCN)c3)n2)ccn1 ... 5.00 to 6.00
FC(F)(F)c1cccc(Nc2nccc(-c3ccc4[nH]nnc4c3)n2)c1 ... 6.00 to 6.70
N#Cc1ccc(Nc2nccc(-c3ccc4[nH]cnc4c3)n2)cc1 ... 6.00 to 6.70
Cc1cc(Nc2nccc(-c3cnc4nc[nH]c4c3)n2)ccc1F ... > 6.70
Cc1cc(Cl)cc(Nc2nccc(-c3ccc4nc[nH]c4c3)n2)c1 ... > 6.70
FC(F)(F)c1cccc(Nc2nccc(-c3ccc4[nH]cnc4c3)n2)c1 ... 5.00 to 6.00
O=C(Nc1cccc(Nc2nccc(-c3ccc4[nH]cnc4c3)n2)c1)c1ccccc1 ... > 6.70
FC(F)(F)c1cncc(Nc2nccc(-c3cnc4nc[nH]c4c3)n2)c1 ... > 6.70
FC(F)(F)Oc1cccc(Nc2nccc(-c3ccc4[nH]cnc4c3)n2)c1 ... 6.00 to 6.70
COc1cncc(-c2ccnc(Nc3cccc(C(F)(F)F)c3)n2)c1 ... 6.00 to 6.70
Oc1ccnc(-c2ccnc(Nc3ccccc3)n2)c1 ... 5.00 to 6.00
O=c1[nH]c2ccc(-c3ccnc(Nc4cccc(F)c4)n3)cc2[nH]1 ... 4.00 to 5.00
Fc1cccc(Nc2nccc(-c3ccn4nccc4n3)n2)c1 ... 5.00 to 6.00
Fc1cccc(Nc2nccc(-c3cnc4nccn4c3)n2)c1 ... 5.00 to 6.00
Oc1ccc(Nc2nccc(-c3ccc4[nH]cnc4c3)n2)cn1 ... 5.00 to 6.00
c1cc(-c2ccc3[nH]cnc3c2)nc(Nc2ccc3c(c2)CCC3)n1 ... 5.00 to 6.00
Fc1cccc(Nc2nccc(-c3ccc4[nH]ccc4c3)n2)c1 [Compound 202] ... 4.00 to 5.00
COc1cc(-c2ccnc(Nc3ccccn3)n2)ccn1 ... 4.00 to 5.00

----------
# Test system: Myc
# protocol: Myc inhibition assay: Myc expression per cell by anti-Myc immunofluorescence, high-content imaging
# Assay type: cell-based, human (patient-derived medulloblastoma xenograft cells)
# applied conditions: Table 1; medulloblastoma PDX cells, 4 h; read-out: IC50 (Myc inhibition)
observation type: IC50

Oc1cccc(-c2ccnc(Nc3ccccc3)n2)n1 ... 10000 to 100000 nM
CCS(=O)(=O)c1cccc(Nc2nccc(-c3ccc4[nH]cnc4c3)n2)c1 ... < 200 nM
CC(C)(C)c1cccc(Nc2nccc(-c3ccnc(O)c3)n2)c1 ... 200 to 1000 nM
NCCOc1cccc(Nc2nccc(-c3ccnc(O)c3)n2)c1 ... 1000 to 10000 nM
c1cc(Nc2nccc(-c3ccc4[nH]cnc4c3)n2)cc(-c2cnco2)c1 ... < 200 nM
O=S(=O)(Nc1ccccc1)c1cccc(Nc2nccc(-c3ccc4[nH]cnc4c3)n2)c1 ... 1000 to 10000 nM
CNC(=O)c1cccc(Nc2nccc(-c3ccc4[nH]cnc4c3)n2)c1 ... 200 to 1000 nM
Cc1cc(F)cc(Nc2nccc(-c3ccc4[nH]cnc4c3)n2)c1 ... < 200 nM
Cc1ccc(Nc2nccc(-c3ccc4[nH]cnc4c3)n2)cc1C(F)(F)F ... < 200 nM

----------
This listing pairs molecules with measured IC50.
# Tested on: Myc
# protocol: Myc inhibition assay: Myc expression per cell by anti-Myc immunofluorescence, high-content imaging
# Format: cell-based, human (patient-derived medulloblastoma xenograft cells)
# applied conditions: Table 1; medulloblastoma PDX cells, 4 h; read-out: IC50 (Myc inhibition)
# Description: To identify Myc inhibitors, cells isolated from patient-derived orthotopic xenografts (PDXs) from patients with Myc-driven medulloblastoma were used. […] Cells were then analyzed using high-content imaging to determine the levels of Myc expression per cell and IC50 values of the compounds.
observation type: IC50

COc1cccc(-c2ccnc(Nc3cccc(Cl)c3)n2)c1 ... 1 to 10 µM
Oc1ccc(Oc2ccnc(Nc3cccc(F)c3)n2)cn1 ... 1 to 10 µM
Clc1ccc(Nc2nccc(-c3ccc4[nH]cnc4c3)n2)cc1Cl ... 0.2 to 1 µM
Oc1cc(-c2ccnc(Nc3ccccc3F)n2)ccn1 ... 10 to 100 µM
c1cc(-c2ccc3[nH]cnc3c2)nc(Nc2cnn(C3CCOCC3)c2)n1 ... 1 to 10 µM
CCOC(=O)CCc1cccc(Nc2nccc(-c3ccc4nc[nH]c4c3)n2)c1 ... 0.2 to 1 µM
FC(F)(F)c1cccc(Nc2nccc(-c3ccc4[nH]ccc4c3)n2)c1 ... 1 to 10 µM
Clc1cccc(Nc2nccc(-c3cnc4nc[nH]c4c3)n2)c1 ... < 0.2 µM
Oc1cc(-c2ccnc(Nc3cccc(C(F)(F)F)n3)n2)ccn1 ... 10 to 100 µM
COc1cc(-c2ccnc(Nc3cc(C(F)(F)F)ccn3)n2)ccn1 ... 10 to 100 µM
COc1cc(-c2ccnc(Nc3ccncc3)n2)ccn1 ... 1 to 10 µM
Fc1cccc(Nc2nccc(-c3cnc4[nH]ccc4c3)n2)c1 ... 10 to 100 µM
COc1cc(-c2ccnc(Nc3cc(F)cc(F)c3)n2)ccn1 ... 1 to 10 µM
CCc1cccc(Nc2nccc(-c3cnc4nc[nH]c4c3)n2)c1 ... < 0.2 µM
Oc1cc(Nc2ccnc(Nc3cccc(F)c3)n2)ccn1 ... 10 to 100 µM
OCCOc1cccc(Nc2nccc(-c3ccnc(O)c3)n2)c1 ... 1 to 10 µM
Oc1cc(-c2ccnc(Nc3cccc(F)c3F)n2)ccn1 ... 1 to 10 µM
FC(F)(F)c1cccc(Nc2nccc(-c3cnc4cc[nH]c4c3)n2)c1 ... 0.2 to 1 µM
FC(F)(F)c1nnc(Nc2nccc(-c3ccc4[nH]cnc4c3)n2)s1 ... 1 to 10 µM
NC(=O)c1ccc(Nc2nccc(-c3ccc4[nH]cnc4c3)n2)cc1 ... 1 to 10 µM
Cc1cc2nc[nH]c2cc1-c1ccnc(Nc2cccc(C(F)(F)F)c2)n1 ... 1 to 10 µM
c1cc(Nc2nccc(-c3ccc4[nH]cnc4c3)n2)cc(-n2cccn2)c1 ... < 0.2 µM
COc1cccc(-c2ccnc(N(C)c3ccccc3)n2)n1 ... 10 to 100 µM
c1cc(Nc2nccc(-c3ccc4[nH]cnc4c3)n2)cc(-c2nnn[nH]2)c1 ... < 0.2 µM
Fc1cccc(Nc2nccc(-c3ccc4[nH]ccc4c3)n2)c1 [Compound 153] ... 1 to 10 µM
c1cc(-c2ccc3[nH]cnc3c2)nc(NC2CCCC2)n1 ... 1 to 10 µM
c1ccc(-c2cccc(Nc3nccc(-c4ccc5[nH]cnc5c4)n3)c2)cc1 ... < 0.2 µM
O=C(O)c1cccc(Nc2nccc(-c3ccc4[nH]cnc4c3)n2)c1 ... 1 to 10 µM
Oc1cccc(-c2ccnc(Nc3ccccc3)n2)c1 ... 1 to 10 µM
COc1cccc(Nc2nccc(-c3ccnc(OC)c3)n2)c1 ... 1 to 10 µM
c1cc(Nc2nccc(-c3ccc4[nH]cnc4c3)n2)cc(-c2ccn[nH]2)c1 ... < 0.2 µM
Oc1cncc(-c2ccnc(Nc3cccc(F)c3)n2)c1 ... 1 to 10 µM
COc1cc(-c2ccnc(Nc3cncc(C(F)(F)F)c3)n2)ccn1 ... 10 to 100 µM
Oc1cc(-c2ccnc(Nc3cc(C(F)(F)F)ccn3)n2)ccn1 ... 10 to 100 µM
Oc1cc(-c2ccnc(Cc3ccccc3)n2)ccn1 ... 10 to 100 µM
COc1cc(-c2ccnc(Sc3ccccc3)n2)ccn1 ... 0.2 to 1 µM
C#Cc1cccc(Nc2nccc(-c3ccc4[nH]cnc4c3)n2)c1 ... 0.2 to 1 µM
